Please provide measured KD ratio (pH 7.4/pH 6.0) for the entries that follow.
# experimental target: T1, monovalent hVISTA-ECD (human VISTA extracellular domain with His tail) (human, UniProt Q9H7M9 33-193)
# T1 construct: analyte flowed over captured antibody; also called huVISTA-His
# T1 sequence (Q9H7M9 other isoform, or with tags, fused parts or gaps limits assumed): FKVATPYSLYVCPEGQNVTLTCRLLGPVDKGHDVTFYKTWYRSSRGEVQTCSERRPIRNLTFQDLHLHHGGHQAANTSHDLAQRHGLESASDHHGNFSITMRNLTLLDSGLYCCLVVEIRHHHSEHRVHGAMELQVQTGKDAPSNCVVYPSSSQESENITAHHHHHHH
# method notes: SPR
Give bare numbers.

{"columns": ["binder", "KD ratio (pH 7.4/pH 6.0)"],
 "data": [
  ["P1-064516 (41F11_Vk_V29D/A64G/R91T/R96Y) (antibody, V domains shown, also called P1-064516-1) VH: QVQLVESGGGLVKPGGSLRLSCAASGFTFSDYYMSWIRQAPGKGLEWVSYISNSGSPIYYADSVKGRFTISRDNAKNSLYLQMNSLRAEDTAVYYCARDLPGWYFDLWGRGTLVTVSS VL: EIVLTQSPATLSLSPGERATLSCRASQSDSSYLAWYQQKPGQAPRLLIYDASNRATGIPARFSGSGSGTDFTLTISSLEPEDFAVYYCQQTNNWPYTFGQGTKVEIK", 2.45]
]}

Batch request: KD ratio (pH 7.4/pH 6.0) for each of the following binders.
1. P1-064480 (41F11_VH_A60H) (antibody, V domains shown, Kabat positions; also called P1-064480-1) VH: QVQLVESGGGLVKPGGSLRLSCAASGFTFSDYYMSWIRQAPGKGLEWVSYISNSGSPIYYHDSVKGRFTISRDNAKNSLYLQMNSLRAEDTAVYYCARDLPGWYFDLWGRGTLVTVSS VL: EIVLTQSPATLSLSPGERATLSCRASQSVSSYLAWYQQKPGQAPRLLIYDASNRATGIPARFSASGSGTDFTLTISSLEPEDFAVYYCQQRNNWPRTFGQGTKVEIK
2. P1-065312 (41F11_VH_F27E VK_A64G) (antibody, V domains shown, Kabat positions; also called P1-065312-1) VH: QVQLVESGGGLVKPGGSLRLSCAASGETFSDYYMSWIRQAPGKGLEWVSYISNSGSPIYYADSVKGRFTISRDNAKNSLYLQMNSLRAEDTAVYYCARDLPGWYFDLWGRGTLVTVSS VL: EIVLTQSPATLSLSPGERATLSCRASQSVSSYLAWYQQKPGQAPRLLIYDASNRATGIPARFSGSGSGTDFTLTISSLEPEDFAVYYCQQRNNWPRTFGQGTKVEIK
3. P1-065333 (41F11_VH_T28P/Y50W/S55E/L96E/Y100E VK_A64G) (antibody, human IgG1, kappa, V domains shown, IgG1.3; also called P1-065333-1; VISTA.4 pH-independent progeny) VH: QVQLVESGGGLVKPGGSLRLSCAASGFPFSDYYMSWIRQAPGKGLEWVSWISNSGEPIYYADSVKGRFTISRDNAKNSLYLQMNSLRAEDTAVYYCARDEPGWEFDLWGRGTLVTVSS VL: EIVLTQSPATLSLSPGERATLSCRASQSVSSYLAWYQQKPGQAPRLLIYDASNRATGIPARFSGSGSGTDFTLTISSLEPEDFAVYYCQQRNNWPRTFGQGTKVEIKR
4. P1-065326 (41F11_VH_D31E/Y50W/S55E/L96E/Y100E VK_A64G) (antibody, V domains shown, Kabat positions; also called P1-065326-1) VH: QVQLVESGGGLVKPGGSLRLSCAASGFTFSEYYMSWIRQAPGKGLEWVSWISNSGEPIYYADSVKGRFTISRDNAKNSLYLQMNSLRAEDTAVYYCARDEPGWEFDLWGRGTLVTVSS VL: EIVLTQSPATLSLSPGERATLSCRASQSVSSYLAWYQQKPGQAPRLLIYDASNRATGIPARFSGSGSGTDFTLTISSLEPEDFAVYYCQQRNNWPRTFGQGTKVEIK
5. P1-064484 (41F11_VH_L96E) (antibody, V domains shown, Kabat positions; also called P1-064484-1) VH: QVQLVESGGGLVKPGGSLRLSCAASGFTFSDYYMSWIRQAPGKGLEWVSYISNSGSPIYYADSVKGRFTISRDNAKNSLYLQMNSLRAEDTAVYYCARDEPGWYFDLWGRGTLVTVSS VL: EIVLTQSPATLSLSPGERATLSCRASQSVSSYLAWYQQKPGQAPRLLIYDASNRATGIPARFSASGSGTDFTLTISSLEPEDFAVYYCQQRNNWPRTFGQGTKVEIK
6. P1-065316 (41F11_VH_A60H VK A64G) (antibody, V domains shown, Kabat positions; also called P1-065316-1) VH: QVQLVESGGGLVKPGGSLRLSCAASGFTFSDYYMSWIRQAPGKGLEWVSYISNSGSPIYYHDSVKGRFTISRDNAKNSLYLQMNSLRAEDTAVYYCARDLPGWYFDLWGRGTLVTVSS VL: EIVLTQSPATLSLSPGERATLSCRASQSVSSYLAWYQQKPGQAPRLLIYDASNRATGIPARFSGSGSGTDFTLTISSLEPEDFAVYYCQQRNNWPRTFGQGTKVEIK
7. P1-064486 (41F11_VH_F100aG) (antibody, V domains shown, Kabat positions; also called P1-064486-1) VH: QVQLVESGGGLVKPGGSLRLSCAASGFTFSDYYMSWIRQAPGKGLEWVSYISNSGSPIYYADSVKGRFTISRDNAKNSLYLQMNSLRAEDTAVYYCARDLPGWYGDLWGRGTLVTVSS VL: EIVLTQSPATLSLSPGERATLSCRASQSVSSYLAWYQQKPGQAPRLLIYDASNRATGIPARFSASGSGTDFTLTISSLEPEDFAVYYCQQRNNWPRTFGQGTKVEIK

1. 0.17
2. 0.3
3. 7.3
4. 5.73
5. 3.64
6. 0.28
7. 0.45

Batch request: KD ratio (pH 7.4/pH 6.0) for each of the following binders.
1. P1-065320 (41F11_VH_L96EF100aG VK_A64G) (antibody, V domains shown) VH: QVQLVESGGGLVKPGGSLRLSCAASGFTFSDYYMSWIRQAPGKGLEWVSYISNSGSPIYYADSVKGRFTISRDNAKNSLYLQMNSLRAEDTAVYYCARDEPGWYGDLWGRGTLVTVSS VL: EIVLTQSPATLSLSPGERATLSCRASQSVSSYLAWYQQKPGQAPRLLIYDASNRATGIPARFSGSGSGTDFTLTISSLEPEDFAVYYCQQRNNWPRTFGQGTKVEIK
2. P1-065319 (41F11_VH_F100aG VK_A64G) (antibody, V domains shown, Kabat positions; also called P1-065319-1) VH: QVQLVESGGGLVKPGGSLRLSCAASGFTFSDYYMSWIRQAPGKGLEWVSYISNSGSPIYYADSVKGRFTISRDNAKNSLYLQMNSLRAEDTAVYYCARDLPGWYGDLWGRGTLVTVSS VL: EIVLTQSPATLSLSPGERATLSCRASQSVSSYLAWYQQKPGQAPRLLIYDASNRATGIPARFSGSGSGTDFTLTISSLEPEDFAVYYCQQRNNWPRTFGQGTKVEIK

1: 45.5; 2: 0.85
